target: recombinant SrtA from S. aureus ATCC6538p (Staphylococcus aureus); construct: made in house; host or cells: Escherichia coli; test: SrtA inhibition assay (fluorescence, dabcyl-LPETG-edans cleavage); format: biochemical
Please assign -1 whenever IC50 is at or above 90 µM, and 1 whenever it is below.

I wonder whether O=C(c1ncc(-c2c[nH]c3ccccc23)[nH]1)c1c[nH]c2cc(Br)ccc12 [Compound 8, isobromodeoxytopsentin] has IC50 below 90 µM. Can you tell?
1

I wonder whether CO[C@@]1(C(=O)c2c[nH]c3cc(O)ccc23)N=C(c2c[nH]c3cc(Br)ccc23)C(=O)N1 [Compound 4, spongosoritin D] has IC50 below 90 µM. Can you tell?
-1

I wonder whether COC(=O)c1c[nH]c2ccccc12 [Compound 13, 3-carbomethoxyindole] has IC50 below 90 µM. Can you tell?
-1

I wonder whether O=C1NC[C@H](c2c[nH]c3cc(Br)ccc23)N[C@H]1c1c[nH]c2cc(Br)ccc12 [Compound 12] has IC50 below 90 µM. Can you tell?
-1

I wonder whether O=C1NC(c2c[nH]c3cc(Br)ccc23)CN=C1c1c[nH]c2ccccc12 (stereo in doubt) [Compound 11, (R)-6′′-debromohamacanthin A] has IC50 below 90 µM. Can you tell?
1

I wonder whether COC(=O)c1c[nH]c2cc(O)ccc12 [Compound 14, 6-hydroxy-3-carbomethoxyindole] has IC50 below 90 µM. Can you tell?
-1

I wonder whether O=C(c1ncc(-c2c[nH]c3cc(Br)ccc23)[nH]1)c1c[nH]c2ccccc12 [Compound 9, bromodeoxytopsentin] has IC50 below 90 µM. Can you tell?
1

* * *

target: recombinant SrtA from S. aureus ATCC6538p (Staphylococcus aureus, UniProt Q2FV99); construct: made in house; host or cells: Escherichia coli; assay: SrtA inhibition assay (fluorescence, dabcyl-LPETG-edans cleavage); assay type: biochemical
Sequence (Q2FV99 whole entry): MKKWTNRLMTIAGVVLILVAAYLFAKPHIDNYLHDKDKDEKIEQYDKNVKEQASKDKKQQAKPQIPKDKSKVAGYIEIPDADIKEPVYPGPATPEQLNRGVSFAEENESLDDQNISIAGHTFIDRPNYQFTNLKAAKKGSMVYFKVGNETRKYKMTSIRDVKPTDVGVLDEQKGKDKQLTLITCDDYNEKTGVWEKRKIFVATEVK
experimental endpoint: IC50

Query O=C(NCC(=O)c1c[nH]c2ccccc12)NC(=O)c1c[nH]c2cc(O)ccc12 [Compound 5, spongocarbamide A] on recombinant SrtA from S. aureus ATCC6538p (Staphylococcus aureus, UniProt Q2FV99); IC50 returned: 79.4 µM

Query O=C(c1nc(-c2c[nH]c3ccccc23)c[nH]1)c1c[nH]c2cc(O)ccc12 [Compound 7, topsentin] on recombinant SrtA from S. aureus ATCC6538p (Staphylococcus aureus, UniProt Q2FV99); IC50 returned: > 374 µM

Query CO[C@@]1(C(=O)c2c[nH]c3ccccc23)N=C(c2c[nH]c3ccccc23)C(=O)N1 [Compound 2, spongosoritin B] on recombinant SrtA from S. aureus ATCC6538p (Staphylococcus aureus, UniProt Q2FV99); IC50 returned: 62.7 µM

Query CO[C@@]1(C(=O)c2c[nH]c3ccccc23)N=C(c2c[nH]c3cc(Br)ccc23)C(=O)N1 [Compound 3, spongosoritin C] on recombinant SrtA from S. aureus ATCC6538p (Staphylococcus aureus, UniProt Q2FV99); IC50 returned: 43.9 µM

Query O=C(c1nc(-c2c[nH]c3cc(Br)ccc23)c[nH]1)c1c[nH]c2cc(O)ccc12 [Compound 10, bromotopsentin] on recombinant SrtA from S. aureus ATCC6538p (Staphylococcus aureus, UniProt Q2FV99); IC50 returned: 53.2 µM

Query O=C(NCC(=O)c1c[nH]c2cc(Br)ccc12)NC(=O)c1c[nH]c2cc(O)ccc12 [Compound 6, spongocarbamide B] on recombinant SrtA from S. aureus ATCC6538p (Staphylococcus aureus, UniProt Q2FV99); IC50 returned: 52.4 µM

Query CO[C@@]1(C(=O)c2c[nH]c3cc(O)ccc23)N=C(c2c[nH]c3ccccc23)C(=O)N1 [Compound 1, spongosoritin A] on recombinant SrtA from S. aureus ATCC6538p (Staphylococcus aureus, UniProt Q2FV99); IC50 returned: > 330 µM

* * *

system: Enterococcus faecium ATCC19434; assay: Antibacterial activity MIC; type: cell-based; conditions: Gram-positive, ATCC19434, read-out: Antibacterial Activity MIC, Enterococcus faecium
experimental endpoint: MIC

Query CO[C@@]1(C(=O)c2c[nH]c3ccccc23)N=C(c2c[nH]c3cc(Br)ccc23)C(=O)N1 on Enterococcus faecium ATCC19434; MIC returned: > 128 µg/mL

Query O=C(c1nc(-c2c[nH]c3cc(Br)ccc23)c[nH]1)c1c[nH]c2cc(O)ccc12 on Enterococcus faecium ATCC19434; MIC returned: 16 µg/mL

Query COC(=O)c1c[nH]c2cc(O)ccc12 [Compound 14, 6-hydroxy-3-carbomethoxyindole] on Enterococcus faecium ATCC19434; MIC returned: > 128 µg/mL

Query CO[C@@]1(C(=O)c2c[nH]c3cc(O)ccc23)N=C(c2c[nH]c3cc(Br)ccc23)C(=O)N1 on Enterococcus faecium ATCC19434; MIC returned: 128 µg/mL

Query CC1(C)S[C@@H]2[C@H](NC(=O)[C@H](N)c3ccccc3)C(=O)N2[C@H]1C(=O)O [ampicillin, reference compound] on Enterococcus faecium ATCC19434; MIC returned: 1 µg/mL

Query CO[C@@]1(C(=O)c2c[nH]c3cc(O)ccc23)N=C(c2c[nH]c3ccccc23)C(=O)N1 on Enterococcus faecium ATCC19434; MIC returned: > 128 µg/mL

Query O=C(NCC(=O)c1c[nH]c2ccccc12)NC(=O)c1c[nH]c2cc(O)ccc12 [Compound 5, spongocarbamide A] on Enterococcus faecium ATCC19434; MIC returned: > 128 µg/mL

Query COC(=O)c1c[nH]c2ccccc12 on Enterococcus faecium ATCC19434; MIC returned: > 128 µg/mL

Query O=C(c1nc(-c2c[nH]c3ccccc23)c[nH]1)c1c[nH]c2cc(O)ccc12 on Enterococcus faecium ATCC19434; MIC returned: 64 µg/mL

* * *

tested on: A549 cell line; test: MTT cytotoxicity assay; assay type: cell-based; conditions: Homo sapiens; MTT assay, A549; read-out: IC50 A549
Assign pIC50 to each entry below.
# pIC50 is unitless: minus log10 of the molar concentration; print number only

Item: COc1cccc2c1C(=O)c1c(O)c3c(c(O)c1C2=O)C[C@@](O)(C(=O)CO)C[C@@H]3O[C@H]1C[C@H](N)[C@H](O)[C@H](C)O1 [doxorubicin, reference compound] | pIC50: 6.19

Item: CO[C@@]1(C(=O)c2c[nH]c3ccccc23)N=C(c2c[nH]c3ccccc23)C(=O)N1 | pIC50: 4.25

Item: O=C1NC(c2c[nH]c3cc(Br)ccc23)CN=C1c1c[nH]c2ccccc12 (stereo in doubt) [Compound 11, (R)-6′′-debromohamacanthin A] | pIC50: 4.40

Item: O=C(c1nc(-c2c[nH]c3cc(Br)ccc23)c[nH]1)c1c[nH]c2cc(O)ccc12 | pIC50: 4.41

Item: CO[C@@]1(C(=O)c2c[nH]c3cc(O)ccc23)N=C(c2c[nH]c3cc(Br)ccc23)C(=O)N1 | pIC50: 4.15

Item: O=C(c1nc(-c2c[nH]c3ccccc23)c[nH]1)c1c[nH]c2cc(O)ccc12 | pIC50: 4.60

Item: COC(=O)c1c[nH]c2cc(O)ccc12 [Compound 14, 6-hydroxy-3-carbomethoxyindole] | pIC50: 4.18

Item: CO[C@@]1(C(=O)c2c[nH]c3cc(O)ccc23)N=C(c2c[nH]c3ccccc23)C(=O)N1 | pIC50: 4.11

Item: COC(=O)c1c[nH]c2ccccc12 | pIC50: 4.23

Item: CO[C@@]1(C(=O)c2c[nH]c3ccccc23)N=C(c2c[nH]c3cc(Br)ccc23)C(=O)N1 | pIC50: 4.21

* * *

Assign MIC to each entry below.
test system: Salmonella enterica ATCC14028; test: Antibacterial activity MIC; assay type: cell-based; conditions: Gram-negative, ATCC14028, read-out: Antibacterial Activity MIC, Salmonella enterica
Response body: numeric value in µg/mL, unit text excluded.

Item: O=C(c1nc(-c2c[nH]c3ccccc23)c[nH]1)c1c[nH]c2cc(O)ccc12 | MIC: 64

Item: O=C(NCC(=O)c1c[nH]c2cc(Br)ccc12)NC(=O)c1c[nH]c2cc(O)ccc12 [Compound 6, spongocarbamide B] | MIC: 128

Item: O=C1NC(c2c[nH]c3cc(Br)ccc23)CN=C1c1c[nH]c2ccccc12 (stereo in doubt) [Compound 11, (R)-6′′-debromohamacanthin A] | MIC: 16

Item: CO[C@@]1(C(=O)c2c[nH]c3ccccc23)N=C(c2c[nH]c3cc(Br)ccc23)C(=O)N1 | MIC: 64

Item: CC1(C)S[C@@H]2[C@H](NC(=O)[C@H](N)c3ccccc3)C(=O)N2[C@H]1C(=O)O [ampicillin, reference compound] | MIC: 0.25

* * *

system: Enterococcus faecium ATCC19434; test: Antibacterial activity MIC; format: cell-based; conditions: Gram-positive, ATCC19434, read-out: Antibacterial Activity MIC, Enterococcus faecium
Assign MIC to each entry below.

Item: O=C1NC(c2c[nH]c3cc(Br)ccc23)CN=C1c1c[nH]c2ccccc12 (stereo in doubt) [Compound 11, (R)-6′′-debromohamacanthin A] | MIC: 32 µg/mL

Item: O=C(NCC(=O)c1c[nH]c2cc(Br)ccc12)NC(=O)c1c[nH]c2cc(O)ccc12 [Compound 6, spongocarbamide B] | MIC: > 128 µg/mL

Item: CO[C@@]1(C(=O)c2c[nH]c3ccccc23)N=C(c2c[nH]c3ccccc23)C(=O)N1 | MIC: > 128 µg/mL
